For each of the compounds below, state its inhibition at 10 µM.
TGT: Human tyrosinase (Homo sapiens)
Construct: Normal human melanocytes (originating from abdominal plasty) are sown in a 24-well plate; endogenous in cells; host or cells: normal human melanocytes from abdominal plasty; donors of light, brown and black phototype
Sequence (P14679 19-529): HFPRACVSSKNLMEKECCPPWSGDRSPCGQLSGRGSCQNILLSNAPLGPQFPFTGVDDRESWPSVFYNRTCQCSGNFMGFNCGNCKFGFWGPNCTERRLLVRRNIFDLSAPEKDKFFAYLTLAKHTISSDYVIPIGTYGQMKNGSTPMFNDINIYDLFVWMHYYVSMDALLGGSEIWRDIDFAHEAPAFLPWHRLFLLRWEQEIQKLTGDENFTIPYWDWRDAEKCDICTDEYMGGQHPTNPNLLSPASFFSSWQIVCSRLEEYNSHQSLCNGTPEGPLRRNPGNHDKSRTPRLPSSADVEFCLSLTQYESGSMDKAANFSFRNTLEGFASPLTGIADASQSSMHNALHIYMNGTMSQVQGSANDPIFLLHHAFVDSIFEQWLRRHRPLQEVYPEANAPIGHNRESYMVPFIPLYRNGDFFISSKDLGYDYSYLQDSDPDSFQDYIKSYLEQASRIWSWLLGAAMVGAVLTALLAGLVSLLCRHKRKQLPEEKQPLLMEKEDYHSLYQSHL
ASSAY METHOD TEXT: Inhibition of human tyrosinase in a monolayer after 24 h application of the actives on normal human melanocytes (MBTH/L-Dopa, OD 490 nm/protein)
Assay type: cell-based
CONDITION LABEL: 10^-5M; 24 hours; read-out: Inhibition of human tyrosinase after application on normal human melanocytes, percentage inhibition
Give the number; % is assumed, so skip it.

Form field - read-out: inhibition at 10 µM; system: Human tyrosinase (Homo sapiens); submitted item: CCCc1ccc(/C=C2\Oc3cc(O)cc(O)c3C2=O)cc1 [Example 7h]
26.9

Notebook entry, Human tyrosinase (Homo sapiens) assay: inhibition at 10 µM of COc1cc(OC)c2c(c1)O/C(=C\c1ccccc1)C2=O [Example 5] = ?
0

Form field - read-out: inhibition at 10 µM; system: Human tyrosinase (Homo sapiens); submitted item: COc1cc(OC)c2c(c1)O/C(=C\c1cc(C)c(C)o1)C2=O [Example 5o]
12.1

Missing value: inhibition at 10 µM, Human tyrosinase (Homo sapiens), entry CCc1ccc(/C=C2\Oc3cc(OC)cc(OC)c3C2=O)o1 [Example 5n] . Fill in?
0

Hi! What's the reported inhibition at 10 µM for O=C1/C(=C/c2ccccc2)Oc2cc(O)cc(O)c21 [Example 7] on Human tyrosinase (Homo sapiens)?
34.9

Test system Human tyrosinase (Homo sapiens); read-out inhibition at 10 µM; what value for O=C1/C(=C/c2ccco2)Oc2cc(O)cc(O)c21 [Example 7m] ?
6.4

Entry CCc1ccc(/C=C2\Oc3cc(OC)cc(OC)c3C2=O)s1 [Example 5r] , system Human tyrosinase (Homo sapiens): what inhibition at 10 µM was measured?
2.1

Item O=c1cc(-c2ccc(O)cc2)oc2cc(O)cc(O)c12 [Apigenin, reference compound] with Human tyrosinase (Homo sapiens) - inhibition at 10 µM?
-40.8

Value wanted: inhibition at 10 µM (Human tyrosinase (Homo sapiens)) of entry COc1cc(OC)c2c(c1)O/C(=C\c1ccc(S(=O)(=O)O)cc1S(=O)(=O)O)C2=O [Example 5f]
2.88

Lookup: inhibition at 10 µM / Human tyrosinase (Homo sapiens) / COc1cc(OC)c2c(c1)O/C(=C\c1ccc(C)s1)C2=O [Example 5q]
0

Lab request: please report inhibition at 10 µM under test system Human tyrosinase (Homo sapiens) for COc1cc(/C=C2\Oc3cc(O)cc(O)c3C2=O)ccc1O [Example 9d]
20.2

What inhibition at 10 µM appears in the records for this compound with Human tyrosinase (Homo sapiens)? CCc1ccc(/C=C2\Oc3cc(O)cc(O)c3C2=O)s1 [Example 7r]
0

For Human tyrosinase (Homo sapiens), provide inhibition at 10 µM of COc1cc(OC)c2c(c1)O/C(=C\c1ccc(C#N)cc1)C2=O [Example 5d] please.
0

What value of inhibition at 10 µM on Human tyrosinase (Homo sapiens) does COc1cc(OC)c2c(c1)O/C(=C\c1[nH]c(C)cc1C)C2=O [Example 5t] have?
0

Write down the reported inhibition at 10 µM of CCOc1ccc(/C=C2\Oc3cc(O)cc(O)c3C2=O)cc1 [Example 9a] , test system: Human tyrosinase (Homo sapiens).
19.9

Fill in the recorded inhibition at 10 µM for this compound, with Human tyrosinase (Homo sapiens) as test system: Cc1ccc(/C=C2\Oc3cc(O)cc(O)c3C2=O)s1 [Example 7q]
7

// fetch Human tyrosinase (Homo sapiens) inhibition at 10 µM for CCc1ccc(/C=C2\Oc3cc(O)cc(O)c3C2=O)cc1 [Example 7b]
4.52

Quick check: inhibition at 10 µM on Human tyrosinase (Homo sapiens), item COc1cc(O)c2c(c1)O/C(=C\c1ccc(SC)cc1)C2=O [Example 6c] ?
14.2

I'm curious: which inhibition at 10 µM was measured for O=C1/C(=C/c2ccccc2O)Oc2cc(O)cc(O)c21 [Example 9c] tested on Human tyrosinase (Homo sapiens)?
4.32

Test system Human tyrosinase (Homo sapiens); read-out inhibition at 10 µM; what value for CCc1ccc(/C=C2\Oc3cc(O)cc(O)c3C2=O)o1 [Example 7n] ?
13.4

Provide value of inhibition at 10 µM for this record tested with Human tyrosinase (Homo sapiens): Cc1cc(/C=C2\Oc3cc(O)cc(O)c3C2=O)oc1C [Example 7o]
4.5

Give Human tyrosinase (Homo sapiens) inhibition at 10 µM for Cc1cc(C)c(/C=C2\Oc3cc(O)cc(O)c3C2=O)[nH]1 [Example 7t]
0

Record CC(C)c1ccc(/C=C2\Oc3cc(O)cc(O)c3C2=O)cc1 [Example 7i] : what is its inhibition at 10 µM with Human tyrosinase (Homo sapiens)?
31.9

Form entry - test system: Human tyrosinase (Homo sapiens); read-out: inhibition at 10 µM; compound: CCc1ccccc1/C=C1\Oc2cc(O)cc(O)c2C1=O [Example 7l]
6.1

Lab note: need inhibition at 10 µM with Human tyrosinase (Homo sapiens) for entry O=C1/C(=C/c2ccc(O)cc2)Oc2cc(O)cc(O)c21 [Example 9b] , please look it up.
35.2

Human tyrosinase (Homo sapiens) / inhibition at 10 µM / O=C1/C(=C/c2ccc(S(=O)(=O)O)cc2)Oc2cc(O)cc(O)c21 [Example 7e] : value?
4.83

Request: inhibition at 10 µM, test system Human tyrosinase (Homo sapiens), entry O=c1cc(-c2ccccc2)oc2cc(O)cc(O)c12 [Chrysin, reference compound]
-6.1

So what inhibition at 10 µM did COc1cc(OC)c2c(c1)O/C(=C\c1cccs1)C2=O [Example 5p] get with Human tyrosinase (Homo sapiens)?
6.4

What reported inhibition at 10 µM corresponds to O=C1/C(=C/c2cccs2)Oc2cc(O)cc(O)c21 [Example 7p] on Human tyrosinase (Homo sapiens)?
15.3

Form field: inhibition at 10 µM recorded for CCc1ccccc1/C=C1\Oc2cc(O)ccc2C1=O [Example 3b] with Human tyrosinase (Homo sapiens) (enter value)
0

Lab note: need inhibition at 10 µM for CCc1ccc(/C=C2\Oc3cc(O)ccc3C2=O)cc1 [Example 3a] on Human tyrosinase (Homo sapiens), anyone have it?
23.9

Hello, I am looking for reported inhibition at 10 µM with Human tyrosinase (Homo sapiens) for COc1cc(OC)c2c(c1)OCC2=O [Example 4, 4,6-Dimethoxybenzofuran-3(2H)-one] . Could you help?
0

Please provide the recorded inhibition at 10 µM for COc1cc(OC)c2c(c1)O/C(=C\c1ccco1)C2=O [Example 5m] , tested on Human tyrosinase (Homo sapiens).
6.4

Form field - read-out: inhibition at 10 µM; system: Human tyrosinase (Homo sapiens); submitted item: CCc1ccc(/C=C2\Oc3cc(OC)cc(OC)c3C2=O)cc1 [Example 5b]
19.4

Field: inhibition at 10 µM (Human tyrosinase (Homo sapiens)). Entry: COc1cc(OC)c2c(c1)O/C(=C\c1ccc(SC)cc1)C2=O [Example 5c]
4.27

# returns recorded inhibition at 10 µM (system: Human tyrosinase (Homo sapiens)) for COc1cc(O)c2c(c1)O/C(=C\c1ccccc1)C2=O [Example 6]
0
